IC50 values for the molecules below.
# procedure details: Cytotoxicity against mouse BA/F3 cells expressing BCR-ABL F317V mutant assessed as growth inhibition after 72 hrs by CCK-8 assay
# condition: BaF3, 72 h
The reply should read as a number followed by its unit.

Here are 3 molecules together with their reported answers.
Cc1ccc(NC(=O)c2ccc(CN3CCN(C)CC3)cc2)cc1Nc1nccc(-c2cccnc2)n1 ... 9500 nM
Cc1nc(Nc2ncc(C(=O)Nc3c(C)cccc3Cl)s2)cc(N2CCN(CCO)CC2)n1 ... 25 nM
Cc1ccc(C(=O)Nc2ccc(CN3CCN(C)CC3)c(C(F)(F)F)c2)cc1C#Cc1cnc2[nH]ncc2c1 ... 4 nM

In the following, a different molecule is considered.
IC50 for `Cc1cn(-c2cc(NC(=O)c3ccc(C)c(Nc4nccc(-c5cccnc5)n4)c3)cc(C(F)(F)F)c2)cn1` ? 2900 nM

###

# procedure details: Plasma concentration in rat after 24 hrs
# Assay type: ADME
readout kind: concentration at 24 h (nM)
Return type: number; implicit unit nM.

Which concentration at 24 h value is on record for Cc1ccc(C(=O)Nc2ccc(CN3CCN(C)CC3)c(C(F)(F)F)c2)cc1C#Cc1cnc2[nH]ncc2c1 [OLVEREMBATINIB] ? 169

###

# procedure details: Cytotoxicity against mouse BA/F3 cells expressing BCR-ABL L248V mutant assessed as growth inhibition after 72 hrs by CCK-8 assay
# condition: BaF3, 72 h
readout kind: IC50 (nM)
Output spec: scalar in nM, unitless text.

Below are worked cases with known answers.
Cc1cn(-c2cc(NC(=O)c3ccc(C)c(Nc4nccc(-c5cccnc5)n4)c3)cc(C(F)(F)F)c2)cn1 ... 3000
Cc1ccc(NC(=O)c2ccc(CN3CCN(C)CC3)cc2)cc1Nc1nccc(-c2cccnc2)n1 ... 12200
Cc1nc(Nc2ncc(C(=O)Nc3c(C)cccc3Cl)s2)cc(N2CCN(CCO)CC2)n1 ... 29

// switching to the query molecule
I would be grateful if you could share the reported IC50 for `Cc1ccc(C(=O)Nc2ccc(CN3CCN(C)CC3)c(C(F)(F)F)c2)cc1C#Cc1cnc2[nH]ncc2c1` . 7.3

###

# tested target: Tyrosine-protein kinase ABL1 (Homo sapiens)
# Sequence (P00519 whole entry): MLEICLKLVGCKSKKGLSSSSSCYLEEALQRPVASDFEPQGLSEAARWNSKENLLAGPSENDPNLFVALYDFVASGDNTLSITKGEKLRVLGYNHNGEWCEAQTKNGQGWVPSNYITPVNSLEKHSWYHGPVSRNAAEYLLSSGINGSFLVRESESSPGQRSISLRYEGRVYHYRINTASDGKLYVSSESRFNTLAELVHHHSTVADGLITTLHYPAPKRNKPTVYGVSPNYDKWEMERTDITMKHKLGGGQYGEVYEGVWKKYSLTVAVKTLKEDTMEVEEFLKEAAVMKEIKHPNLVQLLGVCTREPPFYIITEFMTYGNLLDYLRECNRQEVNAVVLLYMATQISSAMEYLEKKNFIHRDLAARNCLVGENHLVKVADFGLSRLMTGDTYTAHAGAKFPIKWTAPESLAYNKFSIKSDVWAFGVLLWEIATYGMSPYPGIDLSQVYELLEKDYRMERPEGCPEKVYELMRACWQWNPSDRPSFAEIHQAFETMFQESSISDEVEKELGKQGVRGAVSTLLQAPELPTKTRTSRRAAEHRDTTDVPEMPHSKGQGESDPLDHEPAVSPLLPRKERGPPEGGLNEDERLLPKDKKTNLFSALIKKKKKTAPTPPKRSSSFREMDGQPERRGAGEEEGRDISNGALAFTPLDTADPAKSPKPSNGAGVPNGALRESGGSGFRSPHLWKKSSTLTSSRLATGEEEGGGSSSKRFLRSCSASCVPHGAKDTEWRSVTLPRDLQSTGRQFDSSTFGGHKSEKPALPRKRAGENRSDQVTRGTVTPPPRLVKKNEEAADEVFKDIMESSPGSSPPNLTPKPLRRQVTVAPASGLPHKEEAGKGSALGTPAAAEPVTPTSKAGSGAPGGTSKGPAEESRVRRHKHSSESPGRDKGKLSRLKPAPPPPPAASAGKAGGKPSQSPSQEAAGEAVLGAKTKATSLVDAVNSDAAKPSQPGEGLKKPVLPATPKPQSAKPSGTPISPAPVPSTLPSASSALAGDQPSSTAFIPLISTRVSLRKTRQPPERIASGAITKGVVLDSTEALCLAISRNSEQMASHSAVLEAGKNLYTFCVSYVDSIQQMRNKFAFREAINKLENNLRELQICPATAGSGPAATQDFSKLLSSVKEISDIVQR
# procedure details: Inhibition of human recombinant wild type ABL1 expressed in insect cells after 30 mins by FRET assay
readout kind: pIC50
In textbook form, pIC50 equals minus log to base ten of the concentration in mol/L.

# returns recorded pIC50 (system: Tyrosine-protein kinase ABL1 (Homo sapiens)) for `Cc1ccc(C(=O)Nc2ccc(CN3CCN(C)CC3)c(C(F)(F)F)c2)cc1C#Cc1cnc2[nH]ncc2c1` 9.47

###

# procedure details: Cytotoxicity against mouse BA/F3 cells expressing BCR-ABL F486S mutant assessed as growth inhibition after 72 hrs by CCK-8 assay
# condition: BaF3, 72 h
readout kind: IC50 (nM)
Response body: numeric value in nM, unit text excluded.

Cc1ccc(C(=O)Nc2ccc(CN3CCN(C)CC3)c(C(F)(F)F)c2)cc1C#Cc1cnc2[nH]ncc2c1 ... 1
Cc1nc(Nc2ncc(C(=O)Nc3c(C)cccc3Cl)s2)cc(N2CCN(CCO)CC2)n1 ... 0.9
Cc1cn(-c2cc(NC(=O)c3ccc(C)c(Nc4nccc(-c5cccnc5)n4)c3)cc(C(F)(F)F)c2)cn1 ... 9.5

Read the next record carefully.
Which IC50 value is on record for `Cc1ccc(NC(=O)c2ccc(CN3CCN(C)CC3)cc2)cc1Nc1nccc(-c2cccnc2)n1` ? 1000
